endpoint: melting point

> print(dat)
                               smiles.entry     meas.value
1  O=c1ccc(S(=O)(=O)c2ccc(-c3ccccc3)cc2)n[nH]1  219 to 220 °C
2     COC(=O)c1c(C)nc2c(c1N(C)C)c1ccccc1n2C  106 to 108 °C
3  O=C(NCCO)c1cncc(-c2cccc3nn(Cc4cccc(C(F)(F)F)c4)cc23)c1  185 to 186 °C

###

endpoint: melting point

> print(dat)
                                   compound     meas.value
1  CNC(=S)NC1CCCc2cc(C)cnc21 (centres undefined)         113 °C
2        CCN(CC)c1ccc(/C=C/c2c(F)cccc2F)cc1    70 to 71 °C
3  CCc1cc(Oc2ccc([C@H](O)[C@@H](Cc3cccc(OC(F)(F)C(F)F)c3)C(=O)O)cc2)ccc1Cl (racemic)    75 to 76 °C
4  O=C(N[C@@H](CSc1ccccc1)[C@H]1CO1)OCc1ccccc1        61.7 °C
5  COc1ccccc1-c1c2nn(-c3ccc(Cl)cc3)c(=O)c-2c[nH]c1C  267 to 278 °C
6  O=C(Nc1ccc(OC(F)(F)F)cc1)c1cccc(Cl)c1[N+](=O)[O-]  171 to 172 °C
7  Cc1ccc2c(c1C#N)c(Sc1ccc(Cl)cc1)c(C)n2CC(=O)O  237 to 238 °C
8               O=c1[nH]nc2c3c(cccc13)N=CN2       > 300 °C
9  CC(C)(C)c1cc(C(C)(C)C)c(OP2OCCN2C(C)(C)C)c(C(C)(C)C)c1 (centres undefined)    73 to 74 °C

###

endpoint: melting point

> print(dat)
                                    compound       endpoint     meas.value
 1  O=C(O)C1=CC2C(=O)NC(=O)C2(CCO)C=C1 (stereo unspecified)  melting point  197 to 198 °C
 2                      Oc1nc2ccnn2c2ncccc12  melting point       > 300 °C
 3             COc1ccccc1-c1cc(=O)c2ccccc2o1  melting point  97 to 98.5 °C
 4  CC(=O)Nc1ccn(C2CCC(CO)O2)c(=O)n1 (stereo unspecified)  melting point  143 to 145 °C
 5  CSC1=NC=C(I)C(c2nnn(C)n2)(C(F)(F)F)N1 (stereo unspecified)  melting point  113 to 118 °C
 6  N#CN=C(NCCC[C@@H](NC(=O)C(c1ccccc1)c1ccccc1)C(=O)NCc1ccc(O)cc1)Oc1ccccc1  melting point  110 to 112 °C
 7  O=C1NCN(c2ccccc2)C12CCN(CC1=Cc3cc(Cl)ccc3CC1)CC2  melting point  191 to 192 °C
 8  COc1cc2cc(CO)c(CO)c(-c3ccnc(-n4nc(O)c5ccccc5c4=O)c3)c2cc1OC  melting point       > 250 °C
 9  COc1cc(F)ccc1-c1ccc(S(=O)(=O)N2c3ccccc3CC2C(=O)NCCOc2ccc(C(=O)O)cc2)cc1 (stereo unspecified)  melting point         102 °C
10  Cc1nc(-c2ccc(N3CC(CN4CCN(C(CC(=O)OCc5ccccc5)C(=O)OCc5ccccc5)CC4)OC3=O)cc2)no1 (stereo unspecified)  melting point         119 °C
11      Cc1nc2ccc(Cl)nn2c1C(=O)c1ccc(Cl)cc1F  melting point         160 °C
12  CCCc1nc2c(N)nc3cc(Oc4ccccc4C#N)ccc3c2n1CC(C)C  melting point  230 to 232 °C
13            OC(c1ccccc1)(c1ccccc1)c1ccncc1  melting point  238 to 240 °C
14      COc1cc([N+](=O)[O-])ccc1OCC(=O)C1CC1  melting point  112 to 113 °C
15  COCCCn1nnnc1-c1cc(Br)c(OCc2ccccc2)cc1OCc1ccccc1  melting point    92 to 93 °C
16       CC(C)c1cc2c(c3c1C(=O)NS3(=O)=O)OCO2  melting point  226 to 228 °C

Source of measurements: a melting point compilation (Tetko et al.; mined from patent text by program, amines drawn as free bases though some values may be those of a salt)
